# protocolDetails: Preliminary solubility test in solvents at room temperature
# Type: physicochemical
# measurementSetup: 2-methf, 25 °C, organic solvent or mixture, thermodynamic from solid, room temperature
Structures can show the parent of a compound that is named as a salt.
measuredProperty: solubility

Q. Need solubility of CC(C)C[C@@H](C(=O)Nc1ccn(C[C@@H](O)COC(=O)c2cccnc2)n1)N1CC(Oc2ccccc2Cl)=CC1=O [Hydrochloride crystal form B] , thanks.
A. < 1000 µg/mL

* * *

For each entry below, report its solubility value.
# protocolDetails: Preliminary solubility test in solvents at room temperature
# Type: physicochemical
# measurementSetup: chcl3, 25 °C, organic solvent or mixture, thermodynamic from solid, CHCl3, room temperature
# Procedure: Table 10 Solubility range of the starting material sample at room temperature The solubility range in the corresponding solvent was calculated based on the mass of the sample and the volume of the added solvent, as shown in Table 28. The data were used as a base to guide the selection of solvent in screening tests. […] The solubility range in the corresponding solvent was calculated based on the mass of the sample and the volume of the added solvent, as shown in Table 35. […]
Structures can show the parent of a compound that is named as a salt.

Q. Name the recorded solubility for CC(C)C[C@@H](C(=O)Nc1ccn(C[C@@H](O)COC(=O)c2cccnc2)n1)N1CC(Oc2ccccc2Cl)=CC1=O [Compound A] .
A. > 48 mg/mL

Q. // query: CC(C)C[C@@H](C(=O)Nc1ccn(C[C@@H](O)COC(=O)c2cccnc2)n1)N1CC(Oc2ccccc2Cl)=CC1=O [Hydrochloride crystal form B]
A. < 1.1 mg/mL
